# Test system: Blumeria graminis
# METHOD NOTES: Fungicidal activity against Blumeria graminis grown on compound pre-treated wheat seedlings assessed as inhibition of fungal growth at 6.25 mg/ml measured 7 days post fungal inoculation
# Type: functional
# Set-up: dose or concentration left out as unconfirmed
Attribute: inhibition
Output spec: scalar in %, unitless text.

Examples with answers:
[[record]]
structure = "CO/N=C(\\C(=O)OC)c1ccccc1CO/N=C(\\C)c1cccc(C(F)(F)F)c1"
numeric_readout = 100

[[record]]
structure = "CNC(=O)/C(=N/OC)c1ccccc1CO/N=C(\\C)C1=Cc2c(Cl)cccc2C1"
numeric_readout = 100

[[record]]
structure = "CO/N=C(/C(=O)OC)c1ccccc1CO/N=C(\\C)C1=Cc2cc(F)ccc2C1"
numeric_readout = 100

[[record]]
structure = "CO/N=C(/C(=O)OC)c1ccccc1CO/N=C(\\C)C1=Cc2cc(Cl)ccc2C1"
numeric_readout = 95

[[record]]
structure = "CO/C=C(/C(=O)OC)c1ccccc1CO/N=C(C)/C=C/c1ccc(Cl)cc1"
numeric_readout = 62.5

[[record]]
structure = "CO/N=C(/C(=O)OC)c1ccccc1CO/N=C(\\C)C1=Cc2ccccc2C1"
numeric_readout = 10

[[record]]
structure = "CO/C=C(/C(=O)OC)c1ccccc1CO/N=C(\\C)C1=Cc2ccc(F)cc2C1"
numeric_readout = 100

[[record]]
structure = "CO/N=C(/C(=O)OC)c1ccccc1CO/N=C(\\C)C1=Cc2ccc(C)cc2C1"
numeric_readout = 100

[[record]]
structure = "CNC(=O)/C(=N/OC)c1ccccc1CO/N=C(\\C)C1=Cc2cc(Cl)ccc2C1"
numeric_readout = 100

[[record]]
structure = "CO/C=C(/C(=O)OC)c1ccccc1CO/N=C(\\C)C1=Cc2ccc(C)cc2C1"
numeric_readout = 100


Dear colleague, I am looking for the recorded inhibition of the following compound: CO/C=C(/C(=O)OC)c1ccccc1CO/N=C(\C)C1=Cc2c(Cl)cccc2C1 85

Dear colleague, I am looking for the recorded inhibition of the following compound: CO/N=C(/C(=O)OC)c1ccccc1CO/N=C(\C)C1=Cc2c(Cl)cccc2C1 100

Dear colleague, I am looking for the recorded inhibition of the following compound: CNC(=O)/C(=N/OC)c1ccccc1CO/N=C(\C)C1=Cc2ccc(C)cc2C1 100
